PROTOCOL: Measurement of LogP values by HPLC on reversed phase columns (EEC directive 79/831 Annex V.A8)
Type: physicochemical
Marks after values point to notes of the source that are not given here.
REPORTED_METRIC: LogP

Previously resolved entries follow.
CCOc1c(N)nsc1C(=O)NCc1c(F)cc(F)cc1F [I-724] :: 2.09[a]
COc1ccc(CNc2nsc(C(=O)NCc3csc(C)n3)c2Cl)cc1 [I-1217] :: 2.69[a]
Nc1nsc(C(=O)NCc2cc(F)c(F)cc2F)c1Cl [I-677] :: 2.03[a]
COc1ccc(CNc2nsc(C(=O)NCc3ccc(F)c(OC)c3F)c2Cl)cc1 [I-426] :: 3.69[a]
COc1ccc(CNc2nsc(C(=O)NC(C)c3ccccn3)c2Cl)cc1 (stereo not drawn) [I-1197] :: 2.57[a]

INPUT: Give its LogP value. Item: Nc1nsc(C(=O)NCc2ccc(Cl)cc2)c1C1CC1 [I-358]
OUTPUT: 2.21[a]

###

PROTOCOL: Measurement of LogP values by HPLC on reversed phase columns (EEC directive 79/831 Annex V.A8)
Assay type: physicochemical
Marks after values point to notes of the source that are not given here.
REPORTED_METRIC: LogP

Hello, I would appreciate it if you could give LogP for each entry below.
1. COc1ccc(CNc2nsc(C(=O)NCc3ccc(Oc4ccccc4)cc3)c2Cl)cc1
2. Nc1nsc(C(=O)NCC2CCCCC2)c1C#CCO
3. Nc1nsc(C(=O)Nc2ccc(F)cc2F)c1Cl
4. COc1ccc(CNc2nsc(C(=O)N[C@@H](C)C3CCCCC3)c2Cl)cc1

OUTPUT:
1: 4.41[a]; 2: 1.90[c]; 3: 2.07[a]; 4: 4.66[a]

Hello, I would appreciate it if you could give LogP for each entry below.
1. Nc1nsc(C(=O)NC2CCCCC2)c1-c1ccc(F)cc1
2. Cc1ccc(NC(=O)c2cc(N)ns2)cc1Cl
3. COc1ccc(CNc2nsc(C(=O)NCc3cc(Cl)ccc3Cl)c2Cl)cc1
4. Nc1nsc(C(=O)NCc2ccc(F)cc2)c1Br
5. COc1ccc(CNc2nsc(C(=O)NC3CCC4CCCCC4C3)c2Cl)cc1 (stereo not drawn)

OUTPUT:
1: 2.66[a]; 2: 2.35[a]; 3: 4.34[a]; 4: 1.82[a]; 5: 5.24[a]

###

For each record, write down the corresponding LogP.
PROTOCOL: Measurement of LogP values by HPLC on reversed phase columns (EEC directive 79/831 Annex V.A8)
Assay type: physicochemical
Marks after values point to notes of the source that are not given here.

Hello, I would appreciate it if you could give LogP for each entry below.
1. COc1ccc(CNC(=O)c2cc(N)ns2)cc1
2. O=C(c1cc(N(Cc2ccccc2)Cc2ccccc2)ns1)N(Cc1cc(Cl)ccc1F)C1CC1
3. Nc1nsc(C(=O)NCc2cccc(Cl)c2)c1Cl
4. Cc1ccc(CNC(=O)c2snc(N)c2Cl)c(F)c1
5. Cc1cc(Cl)ccc1CNC(=O)c1snc(N)c1Cl
6. N#Cc1ccccc1NC(=O)c1cc(N(Cc2ccccc2)Cc2ccccc2)ns1
7. COc1c(N)nsc1C(=O)NCc1ccccc1F

OUTPUT:
1.28[a]
5.59[a]
2.15[a]
2.18[a]
2.60[a]
4.26[a]
1.64[a]

Hello, I would appreciate it if you could give LogP for each entry below.
1. COc1ccc(CNc2nsc(C(=O)NCc3ccc(Cl)cc3F)c2Cl)cc1
2. COc1cccc(CNC(=O)c2snc(N)c2Cl)c1F
3. COc1ccc(CNC(=O)c2snc(N)c2Cl)cn1
4. CCOC(=O)C1CCC(NC(=O)c2snc(N)c2Cl)CC1 (stereo not drawn) [I-844]
5. Nc1cc(C(=O)NCc2ccc(Cl)cc2)sn1
6. COc1ccc(CNc2nsc(C(=O)NCc3ccc(OC)c(C(F)(F)F)c3)c2Cl)cc1
7. COc1ccc(CNc2nsc(C(=O)NCc3cc(F)cc(C(F)(F)F)c3)c2Cl)cc1
8. O=C(NC1CCCCC1c1ccccc1)c1snc(NC(=O)C2CC2)c1Cl (stereo not drawn)

OUTPUT:
4.03[a]
1.91[a]
1.23[a]
2.02[a]
1.75[a]
3.85[a]
4.15[a]
3.19[a]

Hello, I would appreciate it if you could give LogP for each entry below.
1. COc1ccc(CNc2nsc(C(=O)N(Cc3c(C)cccc3C)C3CC3)c2Cl)cc1
2. O=C(NCc1ccc(Cl)cc1)c1snc(N(C(=O)c2ccccc2)C(=O)c2ccccc2)c1Cl
3. Cc1ccc(C(C)C)c(CNC(=O)c2snc(N)c2Cl)c1
4. Cc1nc(CNC(=O)c2snc(N)c2Cl)cs1
5. C#CCNc1nsc(C(=O)NCc2ccccc2F)c1Cl
6. Nc1nsc(C(=O)NCc2ncc(C(F)(F)F)cc2Cl)c1Cl
7. O=C(Nc1ccc(Cl)cc1Cl)c1snc(N(Cc2ccccc2)Cc2ccccc2)c1Br
8. Nc1nsc(C(=S)NCc2c(F)cc(F)cc2F)c1Cl

OUTPUT:
["4.82[a]", "4.39[a]", "3.15[a]", "1.14[a]", "2.54[a]", "2.58[a]", "7.15[a]", "2.86[a]"]

Hello, I would appreciate it if you could give LogP for each entry below.
1. COc1ccc(CNc2nsc(C(=O)NC3(c4ccccc4Cl)CC3)c2Cl)cc1
2. Nc1nsc(C(=O)NCC2CCCC2O)c1Cl (single isomer, unassigned) [I-772]
3. CCOc1c(N)nsc1C(=O)NCC1CCCC1
4. CC(=O)Nc1nsc(C(=O)NCC2CCCCC2)c1Cl

OUTPUT:
1: 4.24[a]; 2: 1.09[a]; 3: 2.18[a]; 4: 2.14[a]
